- assay_summary: self-splicing fitness, log relative to wild type (ln ratio); higher = more splicing; Tetrahymena group I intron in knt gene, E. coli kanamycin selection, DiMSum; sequences stand for … in CUCUCU…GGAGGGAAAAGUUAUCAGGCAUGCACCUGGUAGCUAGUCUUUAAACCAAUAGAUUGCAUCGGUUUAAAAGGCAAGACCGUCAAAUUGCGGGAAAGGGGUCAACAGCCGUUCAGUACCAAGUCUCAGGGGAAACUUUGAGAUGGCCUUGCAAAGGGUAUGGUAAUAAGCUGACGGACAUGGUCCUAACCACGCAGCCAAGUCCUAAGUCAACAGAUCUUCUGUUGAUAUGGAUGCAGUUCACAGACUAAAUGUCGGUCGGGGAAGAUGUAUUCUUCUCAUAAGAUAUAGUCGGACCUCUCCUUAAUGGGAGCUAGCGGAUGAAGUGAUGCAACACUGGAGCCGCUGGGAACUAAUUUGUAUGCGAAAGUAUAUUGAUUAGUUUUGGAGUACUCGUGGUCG;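 further: selection with 25 µg/mL kanamycin versus none on LB agar overnight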
- applied_conditions: 30 °C
Would you mind labelling by self-splicing fitness (ln)? At or over -2 is MET, under is NOT MET.

QUERY: Please check the record `CACAAGCAAUAUUACGAGAG` and state if its self-splicing fitness (ln) is at or above -2.
RESULT: NOT MET

QUERY: Please check the record `CUAAAGCAAUAUUACGCUGU` and state if its self-splicing fitness (ln) is at or above -2.
RESULT: NOT MET

QUERY: Please check the record `GCUUAGCAAUAUUACGUGCC` and state if its self-splicing fitness (ln) is at or above -2.
RESULT: NOT MET

QUERY: Please check the record `ACAAAGCAAUAUUACGCGCC` and state if its self-splicing fitness (ln) is at or above -2.
RESULT: MET

* * *

- assay_summary: self-splicing fitness, log relative to wild type (ln ratio); higher = more splicing; Tetrahymena group I intron in knt gene, E. coli kanamycin selection, DiMSum; sequences stand for … in CUCUCU…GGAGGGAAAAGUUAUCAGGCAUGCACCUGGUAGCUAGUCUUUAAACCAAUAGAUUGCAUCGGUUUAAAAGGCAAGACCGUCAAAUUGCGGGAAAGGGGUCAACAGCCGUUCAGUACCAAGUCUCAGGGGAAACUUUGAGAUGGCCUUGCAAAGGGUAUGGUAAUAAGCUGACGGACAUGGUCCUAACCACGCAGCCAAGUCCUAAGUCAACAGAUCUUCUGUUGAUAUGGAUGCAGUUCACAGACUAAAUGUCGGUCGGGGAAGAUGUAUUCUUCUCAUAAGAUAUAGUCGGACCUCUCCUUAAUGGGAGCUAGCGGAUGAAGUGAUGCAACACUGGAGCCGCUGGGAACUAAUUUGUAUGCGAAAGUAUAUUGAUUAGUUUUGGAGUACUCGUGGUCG
- applied_conditions: 30 °C
Would you mind labelling by self-splicing fitness (ln)? At or over -0.6 is label 1, under is label 0.

QUERY: Please check the record `CAAUAGCAAUAUUACGCAAU` and state if its self-splicing fitness (ln) is at or above -0.6.
RESULT: label 0

QUERY: Please check the record `GAGCAGCAAUAUUACGUCAA` and state if its self-splicing fitness (ln) is at or above -0.6.
RESULT: label 0

QUERY: Please check the record `UAGUAGCAAUAUUACGGUUA` and state if its self-splicing fitness (ln) is at or above -0.6.
RESULT: label 1

QUERY: Please check the record `UCUAAGCAAUAUUACGUCGG` and state if its self-splicing fitness (ln) is at or above -0.6.
RESULT: label 1

* * *

- assay_summary: self-splicing fitness, log relative to wild type (ln ratio); higher = more splicing; Tetrahymena group I intron in knt gene, E. coli kanamycin selection, DiMSum; sequences stand for … in CUCUCU…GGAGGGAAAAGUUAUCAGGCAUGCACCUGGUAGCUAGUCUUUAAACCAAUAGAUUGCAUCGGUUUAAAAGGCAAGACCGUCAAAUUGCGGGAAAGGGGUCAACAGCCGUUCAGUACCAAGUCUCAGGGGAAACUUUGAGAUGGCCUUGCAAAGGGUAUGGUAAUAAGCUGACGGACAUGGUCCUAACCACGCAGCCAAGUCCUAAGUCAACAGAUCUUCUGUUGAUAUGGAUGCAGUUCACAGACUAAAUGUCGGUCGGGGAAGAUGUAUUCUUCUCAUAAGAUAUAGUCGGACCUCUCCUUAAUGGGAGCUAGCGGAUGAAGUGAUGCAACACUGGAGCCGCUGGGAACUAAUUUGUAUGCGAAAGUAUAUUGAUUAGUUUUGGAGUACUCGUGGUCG
- applied_conditions: 37 °C
recorded_metric: self-splicing fitness (ln)
Give bare numbers.

Observe how each entry below is paired with its result.
{"seq_text": "UUUCAGCAAUAUUACGUCAG", "self-splicing fitness (ln)": -0.726}
{"seq_text": "AAGGAGCAAUAUUACGUUCU", "self-splicing fitness (ln)": -1.09}
{"seq_text": "AGCCAGCAAUAUUACGGACG", "self-splicing fitness (ln)": 0.405}
{"seq_text": "ACUGAGCAAUAUUACGCCUA", "self-splicing fitness (ln)": -1.42}
{"seq_text": "CCGCAGCAAUAUUACGCCUA", "self-splicing fitness (ln)": -3.58}

Go through the items and report each one's self-splicing fitness (ln).
1. AUUAAGCAAUAUUACGCAAU
2. GAAUAGCAAUAUUACGCGCC
3. AGUAAGCAAUAUUACGCGCC
4. GGUCAGCAAUAUUACGGUGU
5. CAUGAGCAAUAUUACGACUC

RESULT:
[-2.34, -1.32, 0.671, 0.00529, -3.38]

* * *

Hi there, I'd appreciate the recorded self-splicing fitness (ln) for every entry that follows.
- assay_summary: self-splicing fitness, log relative to wild type (ln ratio); higher = more splicing; Tetrahymena group I intron in knt gene, E. coli kanamycin selection, DiMSum; sequences stand for … in CUCUCU…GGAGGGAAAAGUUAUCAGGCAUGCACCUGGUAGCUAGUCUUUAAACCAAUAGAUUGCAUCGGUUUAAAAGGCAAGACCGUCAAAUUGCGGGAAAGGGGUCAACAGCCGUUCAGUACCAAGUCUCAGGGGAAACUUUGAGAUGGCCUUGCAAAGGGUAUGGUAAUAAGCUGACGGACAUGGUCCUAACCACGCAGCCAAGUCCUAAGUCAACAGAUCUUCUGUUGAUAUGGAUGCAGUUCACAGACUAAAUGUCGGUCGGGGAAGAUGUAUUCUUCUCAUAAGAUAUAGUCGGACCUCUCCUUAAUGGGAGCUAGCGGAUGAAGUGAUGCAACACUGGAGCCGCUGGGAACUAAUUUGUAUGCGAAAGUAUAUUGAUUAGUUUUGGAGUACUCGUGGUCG
- applied_conditions: 37 °C
One number for each entry.

{"seq_text": "UUGAAGCAAUAUUACGCACG", "recorded_metric": "self-splicing fitness (ln)", "quantitative_result": -0.521}
{"seq_text": "CGGCAGCAAUAUUACGUACC", "recorded_metric": "self-splicing fitness (ln)", "quantitative_result": -1.61}
{"seq_text": "AAAAAGCAAUAUUACGGCGU", "recorded_metric": "self-splicing fitness (ln)", "quantitative_result": 0.208}
{"seq_text": "UCGUAGCAAUAUUACGGGUC", "recorded_metric": "self-splicing fitness (ln)", "quantitative_result": -4.36}

Then there is this sequence:
QUERY: Param item = `UGUUAGCAAUAUUACGAGUA` ; retrieve measured self-splicing fitness (ln).
RESULT: -0.347

* * *

- assay_summary: self-splicing fitness, log relative to wild type (ln ratio); higher = more splicing; Tetrahymena group I intron in knt gene, E. coli kanamycin selection, DiMSum; sequences stand for … in CUCUCU…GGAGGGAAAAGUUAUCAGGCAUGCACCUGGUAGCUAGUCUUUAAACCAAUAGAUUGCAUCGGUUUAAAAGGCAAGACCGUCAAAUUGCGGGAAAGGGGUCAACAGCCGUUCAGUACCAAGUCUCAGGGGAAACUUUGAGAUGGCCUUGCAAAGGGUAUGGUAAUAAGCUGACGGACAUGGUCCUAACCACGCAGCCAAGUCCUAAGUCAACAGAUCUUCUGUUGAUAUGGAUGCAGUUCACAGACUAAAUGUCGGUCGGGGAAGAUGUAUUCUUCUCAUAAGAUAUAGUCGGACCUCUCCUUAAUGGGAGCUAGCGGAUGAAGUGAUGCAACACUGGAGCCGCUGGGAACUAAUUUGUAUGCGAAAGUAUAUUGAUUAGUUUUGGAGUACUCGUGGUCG
- applied_conditions: 30 °C
recorded_metric: self-splicing fitness (ln)
Numbers only.

Observe how each entry below is paired with its result.
{"seq_text": "CGCGAGCAAUAUUACGAGUA", "self-splicing fitness (ln)": -3.55}
{"seq_text": "UCAGAGCAAUAUUACGCGUC", "self-splicing fitness (ln)": -2.62}
{"seq_text": "GUCCAGCAAUAUUACGUGCG", "self-splicing fitness (ln)": -1.15}
{"seq_text": "CGUCAGCAAUAUUACGAGAG", "self-splicing fitness (ln)": -2.91}
{"seq_text": "UGAUAGCAAUAUUACGGUAG", "self-splicing fitness (ln)": -2.38}

Go through the items and report each one's self-splicing fitness (ln).
1. GACUAGCAAUAUUACGAUCA
2. GUGCAGCAAUAUUACGGCUC
3. UGGGAGCAAUAUUACGCCGC
4. AUGUAGCAAUAUUACGCAGU

RESULT:
-0.805
-0.0701
-2.27
-2.49
